system: CCRF-CEM; assay: Cell cycle arrest in human CCRF-CEM assessed as accumulation at subG1 phase at 5 x GIC50 after 24 hrs by flow cytometry; assay type: functional
Exercise: for every item that follows, state its recorded Activity.
Numbers only; they are read as %.

Which Activity value belongs to `OC[C@H]1O[C@@H](n2ccc3c(-c4ccoc4)ncnc32)[C@H](O)[C@@H]1O` ?
61.2

Entry to check: `OC[C@H]1O[C@@H](n2ccc3c(-c4cccs4)ncnc32)[C@H](O)[C@@H]1O`
55

Try the molecule `Nc1ccn([C@@H]2O[C@H](CO)[C@@H](O)C2(F)F)c(=O)n1`
54

What about this molecule? `Nc1nc(Cl)nc2c1ncn2[C@H]1C[C@H](O)[C@@H](CO)O1`
61.5

Let us now turn to `OC[C@H]1O[C@@H](n2cc(F)c3c(-c4cccs4)ncnc32)[C@H](O)[C@@H]1O`
43.4

And then `OC[C@H]1O[C@@H](n2ccc3c(-c4ccco4)ncnc32)[C@H](O)[C@@H]1O` , what is it?
60.2
